Each entry below lists one item and its recorded GI50 value.
System: HT29 colon
Assay: NCI tumour cell line growth inhibition, 48 h

| compound | target entity | data value |
| --- | --- | --- |
| Nc1ccccc1.[C-]#[O+].[C-]#[O+].[C-]#[O+].[C-]#[O+].[C-]#[O+].[Cr] | HT29 colon | > 10 µM |
| COc1cccc(/C=N/NC(=S)NC2CC3CCC2C3)c1O (stereo not given) | HT29 colon | 30.1 µM |
| O=C(O)c1cn(C2CC2)c2cc(N3CCN(C(=O)Nc4nc(-c5ccccc5)cs4)CC3)c(F)cc2c1=O | HT29 colon | 0.636 µM |
| COc1ccccc1C1=C(Nc2ccccc2)C(=O)NC1=O | HT29 colon | > 25 µM |

Turning now to a further compound:
Request: So what's the measured GI50 for this one? `COc1cccc(-c2nn(-c3ccccc3)cc2-c2ccnc(NCCNC(=O)Nc3cccc(C(F)(F)F)c3)c2)c1`
Result: 1.68 µM

====

System: NCI/ADR-RES ovarian
Assay: NCI tumour cell line growth inhibition, 48 h
readout type: TGI

Take a look at these entries with their results.
| compound | data value |
| --- | --- |
| C(/Cc1ccc2c(c1)OCO2)=N\NC1=NCCN1 | > 100 µM |
| O=C(CCC(=O)CC(O)(C(F)(F)F)C(F)(F)F)CC(O)(C(F)(F)F)C(F)(F)F | > 100 µM |
| O=C(O)C[C@@H]1[C@@H](O)[C@@H](O)CN2C(=O)c3ccccc3[C@H]12 | > 100 µM |

Request: So what's the measured TGI for this one? `COc1ccccc1C1=C(Nc2ccccc2)C(=O)NC1=O`
Result: > 25 µM

Request: So what's the measured TGI for this one? `Clc1ccc(-c2nnc(-c3cccc4ccccc34)o2)cc1Cl`
Result: > 100 µM

Request: So what's the measured TGI for this one? CCOc1cc(Br)c(C(C)NC(=O)c2cccc(OC)c2)cc1OCC (configuration not stated)
Result: > 100 µM

Request: So what's the measured TGI for this one? `C=C1c2nc3ccccc3n2C=C(c2ccc(C)cc2)N1c1ccc(C)cc1`
Result: > 78.9 µM

====

System: NCI-H522 lung
Test: NCI tumour cell line growth inhibition, 48 h
readout type: GI50

Take a look at these entries with their results.
| compound | target entity | GI50 |
| --- | --- | --- |
| Clc1ccc(-c2csc(Nc3cccc(-c4csc(-c5ccccc5)n4)c3)n2)cc1 | NCI-H522 lung | 10.2 µM |
| COc1ccc(C(c2ccc(OCCN(C)C)cc2)c2cc3ccccc3c3ccccc23)cc1 (stereo not drawn) | NCI-H522 lung | 1.55 µM |
| FC(F)(F)c1ccc(-c2cnc(-n3cc(COCCN4CCCCC4)nn3)nc2NC2CCCCCC2)cc1 | NCI-H522 lung | 3.93 µM |

Request: Identify the measured GI50 of `CC1=CC(=O)C(C(C)C)=CC1=Nc1cc(Br)c(O)c(Br)c1` for NCI-H522 lung.
Result: 4.42 µM

Request: Identify the measured GI50 of `Cc1ccc(-c2c3c(nn2-c2ccc(S(N)(=O)=O)cc2)-c2ccccc2C3)cc1` for NCI-H522 lung.
Result: 11.5 µM

====

Each entry below lists one item and its recorded TGI value.
Tested on: NCI-H226 lung
Assay: NCI tumour cell line growth inhibition, 48 h

| compound | TGI |
| --- | --- |
| CN=C(NC(=S)N(C)C)N(C)C | > 100 µM |

Request: So what's the measured TGI for this one? COP(=O)(OC)C(NC(=O)C(F)(F)F)(c1ccccc1)C(F)(F)F (configuration not stated)
Result: > 100 µM

Request: So what's the measured TGI for this one? `O=[N+]([O-])c1ccccc1S(=O)(=O)c1ccccc1`
Result: > 100 µM

Request: So what's the measured TGI for this one? `COc1cc(O)c2c(=O)c3c(C)cccc3n(C)c2c1`
Result: > 10 µM

Request: So what's the measured TGI for this one? `CC(=O)c1ccccc1NCC(=O)Nn1cnc2ccc(S(=O)(=O)Nc3ccccc3C(C)=O)cc2c1=O`
Result: > 100 µM

Request: So what's the measured TGI for this one? `O=c1c2c3c(sc2nc2n1N=C(c1ccc(Cl)cc1)CS2)CCCC3`
Result: > 100 µM

Request: So what's the measured TGI for this one? Cc1ccc(NC(=O)C2C(=O)N(c3ccc(C)c(C)c3)C(=O)/C2=N\NC(N)=O)cc1C (configuration not stated)
Result: > 100 µM

Request: So what's the measured TGI for this one? COC(=O)C1C=CCON2CCc3c(n(C)c4ccccc34)C12 (configuration not stated)
Result: > 100 µM

Request: So what's the measured TGI for this one? `Clc1ccc(-c2nnc(-c3cccc4ccccc34)o2)cc1Cl`
Result: > 100 µM

Request: So what's the measured TGI for this one? COC1CC(OC2C(C)OC(OC3C(C)OC(OC4C(O)CC(O[C@H]5CC[C@@]6(C)C(=CC[C@]7(O)[C@@H]6C[C@@H](OC(C)=O)[C@@]6(C)[C@]7(O)CC[C@@]6(O)C(C)=O)C5)OC4C)CC3OC)CC2OC)OC(C)C1O (some centres not stated)
Result: > 12.5 µM

Request: So what's the measured TGI for this one? `CC1(C)O[C@@H](CCl)C[C@H](C#N)O1`
Result: > 100 µM

Request: So what's the measured TGI for this one? COc1cc(C2SC(C)C(=O)N2c2ccc(-c3csc(NS(=O)(=O)c4ccc(Cl)c(OC)c4)n3)cc2)ccc1O (configuration not stated)
Result: > 100 µM

Where these numbers come from: PubChem BioAssay (NCI)
